# Tested on: P. falciparum stage V gametocytes
# Design: BacTiter-Glo ATP luminescence viability of purified stage V gametocytes in 384-well plates, per cent inhibition versus DMSO
# CONDITION_SET: 48 h, 5 µM; inhibitor
The campaign covered roughly 13,000 compounds. About 3,200 (25%) showed an effect of 50% or more. Some of the results follow.
QUANTITY_NAME: % Inhibition (%)
Reply numerically in %, unit not repeated.

{"columns": ["STRUCTURE_STRING", "% Inhibition [%]"],
 "data": [
  ["O=C(NCCCCN1CCC(c2nc3ccccc3s2)CC1)c1cc2ccccc2[nH]1", 6.014],
  ["N/C(=N\\c1ncccn1)Nc1cccc(Cc2ccccc2)n1", -9.706],
  ["O=C(Nc1nc2cc(S(=O)(=O)NCCCN3CCOCC3)ccc2n1CCCn1ccnc1)c1ccc(Cl)cc1", 31.25],
  ["Nc1nc(N)c2c(ccc3[nH]c(-c4ccccc4Cl)nc32)n1", 117.2],
  ["CC(C)N(Cc1cnc(N)c(C#N)n1)c1ccc(Cl)c(Cl)c1", 6.722],
  ["O=C(Nc1nc2cc(S(=O)(=O)NCc3ccc(Cl)c(Cl)c3)ccc2n1CCCN1CCCC1)c1ccc(Cl)cc1", 64.1],
  ["CCOC(=O)c1ccc(NC(=O)Nc2cccc(-c3ccc(-c4nc5ccccc5[nH]4)cc3)c2)cc1", -19.34]
]}

Lab note: next compound to report on.
Provide % Inhibition value for the following compound: Nc1nc(N)c2c(Oc3cccc4ccccc34)cccc2n1
-7.537

---

Below, each entry is listed with its recorded % Inhibition.
# System: P. falciparum stage V gametocytes
# Parameters: BacTiter-Glo ATP luminescence viability of purified stage V gametocytes in 384-well plates, per cent inhibition versus DMSO
# CONDITION_SET: 48 h, 5 µM; inhibitor
In all, about 13,000 compounds went through this assay and about 3,200 (25%) showed an effect of 50% or more. This is one part of the list.
Reply numerically in %, unit not repeated.

Provide % Inhibition value for the following compound: COc1ccc2ncc(F)c(CCN3CCC(NCc4cc(F)c5c(c4)OCCO5)CC3)c2n1
84.79

Provide % Inhibition value for the following compound: CCN1CC=C(c2c[nH]c3ccccc23)CC1
-15.41

Provide % Inhibition value for the following compound: COc1ccc2ncc(F)c(CCN3CCC(NCc4cc(C)c5c(c4)OCCO5)CC3)c2n1
19.66

Provide % Inhibition value for the following compound: COc1ccc2ncc(F)c(CCN3CC(O)C(CNCc4ccc(F)cc4)C3)c2n1 (centres unmarked)
13.85

---

# Test system: P. falciparum stage V gametocytes
# Parameters: BacTiter-Glo ATP luminescence viability of purified stage V gametocytes in 384-well plates, per cent inhibition versus DMSO
# CONDITION_SET: 48 h, 5 µM; inhibitor
Out of some 13,000 compounds screened, about 3,200 (25%) showed an effect of 50% or more. Some of the results follow.
QUANTITY_NAME: % Inhibition (%)
Reply numerically in %, unit not repeated.

These solved cases illustrate the format of a correct answer.
{"columns": ["COMPOUND", "UNIT_STRING", "% Inhibition"],
 "data": [
  ["COc1ccc2nccc([C@@H](O)CN3CCC(NCCOc4cccc(C(F)(F)F)c4)CC3)c2c1 [TCMDC-140507]", "%", 58.71],
  ["O=C(Nc1cccc(C(F)(F)F)c1)Nc1cc(F)c(F)cc1Cl [TCMDC-123779]", "%", 32.47],
  ["N#Cc1cccc(NC(=O)NC2CCN(CCCCCNC(=O)C3CC3c3ccc(Cl)c(Cl)c3)CC2)c1 (stereo not shown) [TCMDC-136250]", "%", 5.084],
  ["CC(C)N(Cc1ccc(-c2ccc(C(F)(F)F)cc2)cc1)C(=O)Cn1c(CCc2cccc(F)c2F)cc(=O)c2ccc(CCCN3CCCCC3)cc21 [TCMDC-141581]", "%", 119.6],
  ["O=C(Nc1cccc(F)c1)N[C@H]1CCN(CCCCCNC(=O)C2CC2c2ccc(Cl)c(Cl)c2)C1 (stereo partly shown) [TCMDC-136261]", "%", -0.7596],
  ["CC1(C)N=C(N)N=C(N)N1OCOc1ccc(Cl)cc1 [TCMDC-131734]", "%", 26.86],
  ["CC1(CCCCN2CCC(c3c[nH]c4cnccc34)CC2)C(=O)Nc2cccc(Cl)c21 (stereo not shown) [TCMDC-141177]", "%", 63.64],
  ["O=C(NCCCN1CCOCC1)c1csc(Nc2ccc(Cl)c(Cl)c2)n1 [TCMDC-123719]", "%", -63.94]
]}

Provide % Inhibition value for the following compound: O=C(Nc1cccc(F)c1)NC1CCN(CCCCCNC(=O)C2CC2c2ccc(Cl)c(Cl)c2)CC1 (stereo not shown) [TCMDC-136248]
79.62

Provide % Inhibition value for the following compound: CCCCc1ccc(-c2c(N)nc(N)nc2CC)cc1 [TCMDC-138064]
-26.34

Provide % Inhibition value for the following compound: CCCCN(Cc1cc(Cl)c(OC)c(OC)c1)c1ccc(C(O)(C(F)(F)F)C(F)(F)F)cc1 [TCMDC-135446]
54.26

Provide % Inhibition value for the following compound: O=C(Nc1ccc(Cl)cc1)NC1CCN(CCCCCNC(=O)C2CC2c2ccc(Cl)c(Cl)c2)CC1 (stereo not shown) [TCMDC-136251]
-16.96

---

# System: P. falciparum stage V gametocytes
# Set-up: BacTiter-Glo ATP luminescence viability of purified stage V gametocytes in 384-well plates, per cent inhibition versus DMSO
# CONDITION_SET: 48 h, 5 µM; inhibitor
Screen size: about 13,000 compounds; about 3,200 (25%) showed an effect of 50% or more. Some of the results follow.
Below, each entry is listed with its recorded % Inhibition.
Reply numerically in %, unit not repeated.

These solved cases illustrate the format of a correct answer.
{"columns": ["MOLECULE", "UNIT_STRING", "% Inhibition"],
 "data": [
  ["CC(C)C[C@H]1c2[nH]c3ccc(Cl)cc3c2CCN1C(=O)CCc1ccccc1", "%", 1.219],
  ["NC(Cc1ccc(Cl)cc1)=NCCN1CCCCCC1", "%", 39.5]
]}

Provide % Inhibition value for the following molecule: Cc1cc(C(F)(F)F)nn1-c1ccc(NC(=O)c2ccco2)cc1
9.865

Provide % Inhibition value for the following molecule: Cc1c(CNCCN2CCCCC2)c(C(=O)O)c(C)n1Cc1ccc(Cl)cc1
31.51

Provide % Inhibition value for the following molecule: O=S(=O)(NCCN1CCCC1)c1ccc(-c2ccc(CNCc3ccccc3)cc2)cc1
101.6

Provide % Inhibition value for the following molecule: Cn1c(=N)n(CC(=O)N2CCc3ccc(Cl)cc3C2Cc2ccc(Cl)c(Cl)c2)c2ccccc21 (stereo not drawn)
109.1

Provide % Inhibition value for the following molecule: Cn1c(=N)n(CC(=O)OCc2ccc(OCc3ccccc3)cc2)c2ccccc21
4.888

Provide % Inhibition value for the following molecule: COc1ccc(Cl)cc1C(=O)Nc1ccc(-c2nc3ccccc3[nH]2)cc1
9.6

Provide % Inhibition value for the following molecule: Clc1ccc(-c2ccc(CNCCCN3CCCC3)cc2)cc1
75.83

---

Below, each entry is listed with its recorded % Inhibition.
# System: P. falciparum stage V gametocytes
# Parameters: BacTiter-Glo ATP luminescence viability of purified stage V gametocytes in 384-well plates, per cent inhibition versus DMSO
# CONDITION_SET: 48 h, 5 µM; inhibitor
The whole screen tested about 13,000 compounds, of which about 3,200 (25%) showed an effect of 50% or more. The list shows a part of the results.
Reply numerically in %, unit not repeated.

These solved cases illustrate the format of a correct answer.
{"columns": ["MOLECULE", "% Inhibition (%)"],
 "data": [
  ["COc1ccc2nccc([C@@H](O)CN3CCC(NCc4cc5ccccc5[nH]4)CC3)c2n1", 14.92],
  ["CS(=O)(=O)Cc1ccc(Nc2nccc(-c3c(-c4cccc(NC(=O)C5CCCCC5)c4)nn4ncccc34)n2)cc1", -14.86],
  ["COc1ccc2nccc([C@@H](O)CN3CCC(NCc4ccc5cccc(O)c5n4)CC3)c2n1", 43.79],
  ["COc1ccc2nccc([C@@H](O)CN3C4CCC3CC(NCc3ccc5c(n3)NC(=O)CS5)C4)c2n1 (stereo partly shown)", 50.82],
  ["CC1CCCCN1S(=O)(=O)c1ccc(NC(=O)c2cc(-c3ccccc3O)n[nH]2)cc1 (stereo not shown)", -44.79],
  ["CNC(=O)c1ccccc1Nc1nc(Nc2cccnc2)ncc1C", 33.23],
  ["CCCCCCN1CCN(Cc2cccc(NC(=O)c3cc4ccccc4o3)c2)CC1", -12.01],
  ["CNC(=O)c1ccccc1Nc1nc(Nc2cccc(CS(C)(=O)=O)c2)ncc1C", 64.95]
]}

Provide % Inhibition value for the following molecule: CCC[C@@H]([C@@H](CC(C)C)C(=O)N[C@H](C(=O)Nc1nccs1)C(C)(C)SCCNC(=O)OCC)N(O)C=O
30.89

Provide % Inhibition value for the following molecule: Cc1cc2cc(/C=C/C(=O)NC3CCC(CCN4CCc5ccc(C#N)cc5CC4)CC3)ccc2[nH]1 (stereo not shown)
-19.51

Provide % Inhibition value for the following molecule: COc1ccc2nccc([C@@H](O)CN3CCC(NC(=O)C(=Cc4ccc(Cl)cc4Cl)c4ccc(-c5ccccc5)cc4)CC3)c2c1
17.05

Provide % Inhibition value for the following molecule: Oc1ccc(CNCC2CCN(CC3CCCCC3)CC2)cc1
-27.61

Provide % Inhibition value for the following molecule: CCOc1ccccc1CCNCC1CCN(CC2CCCCC2)CC1
95.36

Provide % Inhibition value for the following molecule: O=C(Nc1cccc(C(F)(F)F)c1)NC1CCN(c2ccnc3cc(Cl)ccc23)CC1
-12.77

Provide % Inhibition value for the following molecule: CNC(=O)c1cc(F)c(F)cc1Nc1nc(Nc2cccc(CS(C)(=O)=O)c2)ncc1Cl
-6.741

Provide % Inhibition value for the following molecule: Fc1c(CNCC2CCN(CC3CCCCC3)CC2)cccc1C(F)(F)F
4.763

// data source = paper PMC4552634
